In this section, each of the compounds is paired with its reported Ratio.
# System: Gallus gallus
# RUN DESCRIPTION: Effect on intestinal calcium absorption was measured in vivo, in the vitamin D deficient chick
# Format: functional
# Parameters: reference not given here
Lab note: record the figure alone, no unit after it.

Here is how some compounds turned out for Ratio.
C=C1/C(=C\C=C2/CCC[C@]3(C)[C@@H]([C@H](C)Cc4ccc(O)cc4)CC[C@@H]23)C[C@@H](O)C[C@@H]1O | 0.04
C=C1/C(=C\C=C2/CCC[C@]3(C)[C@@H]([C@H](C)Cc4cccc(O)c4)CC[C@@H]23)C[C@@H](O)C[C@@H]1O | 0.28
C=C1/C(=C\C=C2/CCC[C@]3(C)[C@@H]([C@H](C)Cc4cccc(C(C)(C)O)c4)CC[C@@H]23)C[C@@H](O)C[C@@H]1O | 30.7

What Ratio value was documented for this compound, C=C1/C(=C\C=C2/CCC[C@]3(C)[C@@H]([C@H](C)Cc4cccc(C)c4)CC[C@@H]23)C[C@@H](O)C[C@@H]1O ?
0.31
